Every entry's value here was drawn from ChEMBL document CHEMBL4819064.

Catalogue of inhibition at 72 h, 0.25 µM readings, one per entry.
biological target: UniProt P08183; experiment: Inhibition of P-gp activity in human MCF7/ADR cells at 250 nM after 72 hrs by RT-PCR analysis relative to control; assay type: cell-based, NCI/ADR-RES; settings: MCF7/ADR cells
Sequence (P08183 whole entry): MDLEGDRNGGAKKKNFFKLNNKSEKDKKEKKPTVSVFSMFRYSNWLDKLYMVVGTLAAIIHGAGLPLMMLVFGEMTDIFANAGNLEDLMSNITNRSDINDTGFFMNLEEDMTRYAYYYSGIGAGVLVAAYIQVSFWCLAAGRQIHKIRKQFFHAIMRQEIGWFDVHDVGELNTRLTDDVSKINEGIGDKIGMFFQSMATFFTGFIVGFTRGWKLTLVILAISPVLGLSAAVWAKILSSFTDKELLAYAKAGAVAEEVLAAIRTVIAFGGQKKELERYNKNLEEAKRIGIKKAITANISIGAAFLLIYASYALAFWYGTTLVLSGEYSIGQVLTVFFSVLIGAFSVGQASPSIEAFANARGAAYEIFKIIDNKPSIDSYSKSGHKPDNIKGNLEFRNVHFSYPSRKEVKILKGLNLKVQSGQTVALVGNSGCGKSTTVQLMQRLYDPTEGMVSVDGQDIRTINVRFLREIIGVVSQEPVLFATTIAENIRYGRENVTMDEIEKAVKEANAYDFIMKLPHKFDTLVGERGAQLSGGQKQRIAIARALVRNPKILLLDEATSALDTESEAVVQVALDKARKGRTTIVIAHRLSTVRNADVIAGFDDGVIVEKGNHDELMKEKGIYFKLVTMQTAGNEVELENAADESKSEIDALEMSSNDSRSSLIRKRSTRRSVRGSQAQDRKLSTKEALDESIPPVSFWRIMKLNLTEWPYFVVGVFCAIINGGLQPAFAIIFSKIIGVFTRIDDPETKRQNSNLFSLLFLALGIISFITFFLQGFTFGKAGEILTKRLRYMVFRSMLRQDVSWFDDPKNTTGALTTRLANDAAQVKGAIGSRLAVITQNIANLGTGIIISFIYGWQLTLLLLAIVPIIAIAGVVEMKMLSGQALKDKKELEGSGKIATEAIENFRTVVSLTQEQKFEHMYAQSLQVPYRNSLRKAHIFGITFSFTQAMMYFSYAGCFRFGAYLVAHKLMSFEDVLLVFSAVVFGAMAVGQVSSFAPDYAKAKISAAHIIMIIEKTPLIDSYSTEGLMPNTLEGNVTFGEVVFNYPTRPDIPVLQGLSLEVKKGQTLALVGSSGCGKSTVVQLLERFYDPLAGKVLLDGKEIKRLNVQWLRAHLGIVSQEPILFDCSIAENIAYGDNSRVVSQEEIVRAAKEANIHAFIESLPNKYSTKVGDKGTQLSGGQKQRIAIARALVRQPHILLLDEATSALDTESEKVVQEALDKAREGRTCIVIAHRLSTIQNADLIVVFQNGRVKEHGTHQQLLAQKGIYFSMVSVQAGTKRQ

Mol: N#Cc1c2n(c3c(=O)n(-c4ccc(F)cc4)cnc13)CCC2
Experimental target: UniProt P08183
inhibition at 72 h, 0.25 µM [%]: 65
--
Mol: N#Cc1c2n(c3c(=O)n(-c4ccc(Br)cc4)cnc13)CCCC2
Experimental target: UniProt P08183
inhibition at 72 h, 0.25 µM [%]: 63

* * *

tested on: HT-29; experiment: Cytotoxicity against human HT29 cells assessed as reduction in cell viability incubated for 72 hrs by MTT assay; details: HT-29, 72 h
Field: label. Allowed values: Y (IC50 < 1000 nM) or N (IC50 >= 1000 nM).

Mol: N#Cc1c2n(c3c(=O)n(-c4ccc(Br)cc4)cnc13)CCCC2
Discrete label: N
--
Mol: COc1ccc(N2CC(=O)Nc3c(C#N)c4n(c3C2=O)CCC4)cc1
Discrete label: Y
--
Mol: COc1ccc(-n2c(=O)[nH]c3c(C#N)c4n(c3c2=O)CCC4)cc1
Discrete label: Y
--
Mol: N#Cc1c2n(c3c(=O)n(-c4ccc(F)cc4)c(=O)[nH]c13)CCC2
Discrete label: N
--
Mol: N#Cc1c2n(c3c(=O)n(-c4ccc(F)cc4)cnc13)CCC2
Discrete label: Y
--
Mol: COc1ccc(NC(=O)c2c3nc[nH]c(=O)c3c3n2CCC3)cc1
Discrete label: Y
--
Mol: N#Cc1c2n(c3c(=O)n(-c4ccc(Cl)cc4)cnc13)CCCC2
Discrete label: Y
--
Mol: COc1ccc(-n2c(C)nc3c(C#N)c4n(c3c2=O)CCC4)cc1
Discrete label: Y
--
Mol: Cc1nc2c(C#N)c3n(c2c(=O)n1-c1ccc(F)cc1)CCC3
Discrete label: Y
--
Mol: N#Cc1c2n(c3c(=O)n(-c4ccccc4)cnc13)CCCC2
Discrete label: N
--
Mol: Cc1nc2c(C#N)c3n(c2c(=O)n1-c1ccc(Cl)cc1)CCCC3
Discrete label: N
--
Mol: N#Cc1c2c(n3c1CCC3)C(=O)N(c1ccc(F)cc1)CC(=O)N2
Discrete label: N
--
Mol: Cc1nc2c(C#N)c3n(c2c(=O)n1-c1ccc(Br)cc1)CCCC3
Discrete label: N
--
Mol: COc1ccc(-n2cnc3c(C#N)c4n(c3c2=O)CCC4)cc1
Discrete label: N
--
Mol: Cc1nc2c(C#N)c3n(c2c(=O)n1-c1ccccc1)CCCC3
Discrete label: Y

* * *

test: Selectivity index, ratio of IC50 for human MRC5 cells to IC50 for human HT29 cells; format: toxicity; conditions: MRC5 cells versus HT29 cells, read-out: Ratio IC50
Catalogue of selectivity ratio readings, one per entry.

Mol: Cc1nc2c(C#N)c3n(c2c(=O)n1-c1ccc(F)cc1)CCC3
selectivity ratio: 3.56
--
Mol: COc1ccc(NC(=O)c2c3nc[nH]c(=O)c3c3n2CCC3)cc1
selectivity ratio: 10.9
--
Mol: N#Cc1c2n(c3c(=O)n(-c4ccccc4)cnc13)CCCC2
selectivity ratio: 1.36
--
Mol: Cc1nc2c(C#N)c3n(c2c(=O)n1-c1ccc(Br)cc1)CCCC3
selectivity ratio: 0.35
--
Mol: N#Cc1c2n(c3c(=O)n(-c4ccc(F)cc4)c(=O)[nH]c13)CCC2
selectivity ratio: 0.05
